I'd be grateful if you could share measured Tubulin Polym. % inhibition at 0.3 uM for these entries.
# Tested on: bovine microtubule-associated protein (MAP)-rich tubulin
# Assay type: biochemical
# test-context: 0.3 uM

Below are worked cases with known answers.
C/C(=C\[C@H](C(C)C)N(C)C(=O)[C@@H](NC(=O)C1N(C)CCSC1(C)C)C(C)(C)C)C(=O)O (stereo partly shown)
89(2) %
CN[C@H](C(=O)N[C@H](C(=O)N(C)[C@H](/C=C(\C)C(=O)N1CCCC[C@H]1C(=O)OC)C(C)C)C(C)(C)C)C(C)(C)c1ccccc1
62(2) %
CN[C@H](C(=O)N[C@H](C(=O)N(C)[C@H](/C=C(\C)C(=O)N1CCC[C@H]1C(=O)OC)C(C)C)C(C)(C)C)C(C)(C)C1CCCCC1
62(2) %

Proceeding to the next compound to report its Tubulin Polym. % inhibition at 0.3 uM.
// CN[C@H](C(=O)N[C@H](C(=O)N(C)[C@H](/C=C(\C)C(=O)N1CCCC[C@H]1C(=O)O)C(C)C)C(C)(C)C)C(C)(C)c1ccccc1 : Tubulin Polym. % inhibition at 0.3 uM value = 84(2) %

----------
Please provide measured IC50 for the entries that follow.
# Test system: KB85
# protocol-description: cells
# Assay type: cell-based
# test-context: 72 h, 3 days, SRB

CCOC(=O)/C(C)=C/[C@H](C(C)C)N(C)C(=O)[C@@H](NC(=O)[C@@H](C)C(C)(C)c1ccccc1)C(C)(C)C
> 3 µM
CN[C@H](C(=O)N[C@H](C(=O)N(C)[C@H](/C=C(\C)C(=O)N1CCC[C@H]1C(=O)O)C(C)C)C(C)(C)C)C(C)(C)c1cccc(C)c1
0.599 µM
CN[C@H](C(=O)N[C@H](C(=O)N(C)[C@H](/C=C(\C)C(=O)N1CC=C[C@H]1C(=O)OC)C(C)C)C(C)(C)C)C(C)(C)c1ccccc1
0.017 µM
CCOC(=O)/C(C)=C/[C@H](C(C)C)N(C)C(=O)[C@@H](NC(=O)C(OC)C(C)(C)c1ccccc1)C(C)(C)C (some centres unmarked)
2.13 µM

The reported IC50 of the compound C=CCC(C(=O)N[C@H](C(=O)N(C)[C@H](/C=C(\C)C(=O)OCC)C(C)C)C(C)(C)C)C(C)(C)c1ccccc1 (some centres unmarked) was 3.32 µM

----------
Would you kindly list Tubulin Polym. % inhibition at 0.3 uM for each of these molecules?
# Tested on: bovine microtubule-associated protein (MAP)-rich tubulin
# Format: biochemical
# test-context: 0.3 uM
# Method: Tubulin Polymerization Assays. For in vitro tubulin polymerization assays, bovine microtubule-associated protein (MAP)-rich tubulin, PEM buffer [80 mM Na-PIPES (pH 6.9), 1 mM MgCl2, and 1 mM EGTA], and GTP are purchased from Cytoskeleton (Denver, Colo.). […] After initiation of the reaction, absorbance at 340 nm is measured every minute for 60 min at 24° C. using a SpectraMax Plus plate reader (Molecular Devices, Sunnyvale, Calif.).
Where a SMILES comes first, the peptide text is derived from it. [ ]: non-standard residue; d: D form. NMePhe(β,β-Me2) = CN[C@H](C(=O)O)C(C)(C)c1ccccc1; Tle = CC(C)(C)[C@H](N)C(=O)O; NMeV = CN[C@H](C(=O)O)C(C)C
Give bare numbers, in %.

Solved entries (count: 8):
C/C(=C\[C@H](C(C)C)N(C)C(=O)[C@@H](NC(=O)[C@@H](C)C(C)(C)c1ccccc1)C(C)(C)C)C(=O)O
94
CN[C@H](C(=O)N[C@H](C(=O)N(C)[C@H](C(=O)N1CCC[C@H]1C(=O)OC)C(C)C)C(C)(C)C)C(C)(C)c1ccccc1 [Example 33] (H-[NMePhe(β,β-Me2)][Tle][NMeV]P-OMe)
19
CN[C@H](C(=O)N[C@H](C(=O)N(C)[C@H](/C=C(\C)C(=O)N1CCC[C@@H]1C(=O)OC)C(C)C)C(C)(C)C)C(C)(C)c1ccccc1
96
CN[C@H](C(=O)N[C@H](C(=O)N(C)[C@H](/C=C(\C)S(=O)(=O)O)C(C)C)C(C)(C)C)C(C)(C)c1ccccc1
91
CN[C@H](C(=O)N[C@H](C(=O)N(C)[C@H](/C=C(\C)P(=O)(O)O)C(C)C)C(C)(C)C)C(C)(C)c1ccccc1
53
CN[C@H](C(=O)N[C@H](C(=O)N(C)[C@H](/C=C(\C)C(=O)N1CCC[C@H]1C(=O)N1CCC[C@H]1C(=O)NCc1ccccc1)C(C)C)C(C)(C)C)C(C)(C)c1ccc(C)c(C)c1
42
CN[C@H](C(=O)N[C@H](C(=O)N(C)[C@H](/C=C(\C)C(=O)NCc1ccc(-c2ccccc2)cc1)C(C)C)C(C)(C)C)C(C)(C)c1ccccc1
11
CN[C@H](C(=O)N[C@H](C(=O)N(C)[C@H](/C=C(\C)C(=O)N1CCOCC1)C(C)C)C(C)(C)C)C(C)(C)c1ccc(C)c(C)c1
37

I need Tubulin Polym. % inhibition at 0.3 uM for every entry listed below, if you could help.
1. CN[C@H](C(=O)N[C@H](C(=O)N(C)[C@H](/C=C(\C)C(=O)N1CCC[C@H]1C(=O)OC)C(C)C)C(C)(C)C)C(C)(C)c1cccc(C)c1
2. CN[C@H](C(=O)N[C@H](C(=O)N(C)[C@H](/C=C(\C)C(=O)O)C(C)C)C(C)(C)C)C12CC3CC(CC(C3)C1)C2

1. 89
2. 66
